molecular target: MC1-R; assay: Competitive inhibition binding assay using [I125]-NDP-α-MSH, MC1-R; conditions: membranes of B-16 mouse melanoma cells (endogenous MC1-R), in some instances HEK-293 hMC1-R
pKi: −log10 of the molar value.
measure.name: pKi

CC(=O)N[C@H](CCCNC(=N)N)C(=O)N[C@H]1CC(=O)NCCCC[C@@H](C(N)=O)NC(=O)[C@H](Cc2c[nH]c3ccccc23)NC(=O)[C@H](CCCNC(=N)N)NC(=O)[C@@H](Cc2cccc(Cl)c2)NC(=O)[C@H](CCC(N)=O)NC1=O	5.76

1 = CC(=O)N[C@@H](CCCNC(=N)N)C(=O)N[C@H]1CCC(=O)NCCC[C@@H](C(N)=O)NC(=O)[C@H](Cc2c[nH]c3ccccc23)NC(=O)[C@H](CCCNC(=N)N)NC(=O)[C@@H](Cc2ccccc2F)NC(=O)[C@H](CO)NC1=O
2 = CC(=O)N[C@@H](CCCNC(=N)N)C(=O)N[C@H]1CCC(=O)NCCC[C@@H](C(N)=O)NC(=O)[C@H](Cc2c[nH]c3ccccc23)NC(=O)[C@H](CCCNC(=N)N)NC(=O)[C@@H](Cc2ccc(C#N)cc2)NC(=O)[C@H]([C@@H](C)O)NC1=O
3 = CC(=O)N[C@@H](CCCNC(=N)N)C(=O)N[C@H]1CCC(=O)NCCC[C@@H](C(N)=O)NC(=O)[C@H](Cc2c[nH]c3ccccc23)NC(=O)[C@H](CCCNC(=N)N)NC(=O)[C@@H](Cc2cccc(C#N)c2)NC(=O)[C@H](CCN)NC1=O
**Q:** Ascending by pKi, please. Please respond by ranking the labels in the order requested.
**A:** 2, 1, 3
(2: 5.79, 1: 6.86, 3: 7.37)
